Ref: patent US20230000870A1

pIC50 values by entry
- Target Desc: CDK12 (aa686-1082)/Cyclin K complex (Homo sapiens, UniProt Q9NYV4)
- Construct: CDK12 (aa686-1082)/Cyclin K complex
- Sequence (Q9NYV4 686-1082): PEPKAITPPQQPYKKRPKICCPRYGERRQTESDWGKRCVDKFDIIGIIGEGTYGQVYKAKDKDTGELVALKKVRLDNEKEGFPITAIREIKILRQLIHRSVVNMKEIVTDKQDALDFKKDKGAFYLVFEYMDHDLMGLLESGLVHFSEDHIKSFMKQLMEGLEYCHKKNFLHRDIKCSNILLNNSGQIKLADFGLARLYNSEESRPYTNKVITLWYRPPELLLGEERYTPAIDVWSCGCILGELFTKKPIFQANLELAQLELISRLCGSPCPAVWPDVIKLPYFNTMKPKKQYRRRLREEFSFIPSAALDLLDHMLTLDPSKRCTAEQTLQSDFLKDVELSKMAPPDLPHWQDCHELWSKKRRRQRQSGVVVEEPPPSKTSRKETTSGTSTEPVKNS
- Sequence (O75909 whole entry partner, the tested form may be a part): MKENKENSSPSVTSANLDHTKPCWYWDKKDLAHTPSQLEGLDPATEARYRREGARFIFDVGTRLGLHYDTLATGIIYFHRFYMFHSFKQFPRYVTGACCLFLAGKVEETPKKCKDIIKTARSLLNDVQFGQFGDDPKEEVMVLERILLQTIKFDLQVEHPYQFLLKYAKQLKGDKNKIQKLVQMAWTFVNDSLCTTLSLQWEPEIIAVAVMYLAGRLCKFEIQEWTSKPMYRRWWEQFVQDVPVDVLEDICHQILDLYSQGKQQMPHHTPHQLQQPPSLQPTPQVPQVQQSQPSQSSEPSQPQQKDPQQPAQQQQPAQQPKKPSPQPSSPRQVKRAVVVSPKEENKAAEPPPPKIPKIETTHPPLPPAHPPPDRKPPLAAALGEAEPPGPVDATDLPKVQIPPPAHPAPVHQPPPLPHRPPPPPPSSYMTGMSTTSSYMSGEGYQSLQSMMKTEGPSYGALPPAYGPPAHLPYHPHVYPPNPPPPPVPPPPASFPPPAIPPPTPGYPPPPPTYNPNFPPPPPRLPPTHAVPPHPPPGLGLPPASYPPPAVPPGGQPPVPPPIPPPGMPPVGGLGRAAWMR
- Measurement Notes: CDK12 kinase inhibition assay (Caliper/LabChip EZ Reader)
- Protocol Conditions: CDK12 (aa686-1082)/Cyclin K 50 nM, ATP 2 mM, 3 hr at 27° C.
pIC50: −log10 of the molar value.

Compound | pIC50
CNS(=O)(=O)c1ccc2c(-c3nc(N[C@H]4CCCNC4)ncc3C(F)(F)F)c[nH]c2c1 | 5.30 to 6.70
CCc1cnc(N[C@H]2CCCNC2)nc1-c1n[nH]c2c(F)cccc12 | 5.30 to 6.70
FC(F)(F)c1cnc(NC2CCCNC2)nc1-c1c[nH]c2cc(-c3ncc[nH]3)ccc12 (stereo not drawn) | ≤ 5.30
Fc1cc2[nH]nc(-c3nc(NC4CCCNC4)ncc3C(F)(F)F)c2cc1F (stereo not drawn) | 5.30 to 6.70
Oc1ncccc1-c1ccc2c(-c3nc(NC4CCCNC4)ncc3C(F)(F)F)c[nH]c2c1 (stereo not drawn) | 5.30 to 6.70
Cc1cccc2c(-c3nc(NC4CCCNC4)ncc3C(F)(F)F)c[nH]c12 (stereo not drawn) | 6.70 to 7.70
CNC(=O)c1ccc2c(-c3nc(NC4CCCNC4)ncc3C(F)(F)F)c[nH]c2c1 (stereo not drawn) | 5.30 to 6.70
FC(F)(F)c1cnc(NC2CCCNC2)nc1-c1c[nH]c2ccccc12 (stereo not drawn) | 6.70 to 7.70
O=C1CCc2ccc(-c3ccc4c(-c5nc(NC6CCCNC6)ncc5C(F)(F)F)c[nH]c4c3)cc2N1 (stereo not drawn) | 5.30 to 6.70
O=S1(=O)CCn2cc(-c3nc(N[C@H]4CCCNC4)ncc3C(F)(F)F)c3cccc1c32 | ≤ 5.30
CC1(C)CCC(Nc2ncc(C(F)(F)F)c(-c3c[nH]c4cc(C#N)ccc34)n2)CN1 (stereo not drawn) | 5.30 to 6.70
FCCc1cnc(NC2CCCNC2)nc1-c1c[nH]c2ccccc12 (stereo not drawn) | 5.30 to 6.70

====

- Target Desc: CDK9/Cyclin T1 complex (Homo sapiens, UniProt P50750)
- Sequence (P50750 whole entry): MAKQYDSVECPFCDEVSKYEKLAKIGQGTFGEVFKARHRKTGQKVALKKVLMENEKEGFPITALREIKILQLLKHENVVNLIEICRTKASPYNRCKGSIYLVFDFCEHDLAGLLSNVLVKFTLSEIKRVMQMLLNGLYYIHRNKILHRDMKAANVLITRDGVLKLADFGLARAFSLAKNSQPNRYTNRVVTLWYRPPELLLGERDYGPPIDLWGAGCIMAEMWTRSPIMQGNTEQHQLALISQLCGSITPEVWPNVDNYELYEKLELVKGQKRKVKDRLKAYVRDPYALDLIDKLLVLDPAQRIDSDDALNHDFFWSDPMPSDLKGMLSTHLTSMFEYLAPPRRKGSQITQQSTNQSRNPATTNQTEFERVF
- Sequence (O60563 whole entry partner): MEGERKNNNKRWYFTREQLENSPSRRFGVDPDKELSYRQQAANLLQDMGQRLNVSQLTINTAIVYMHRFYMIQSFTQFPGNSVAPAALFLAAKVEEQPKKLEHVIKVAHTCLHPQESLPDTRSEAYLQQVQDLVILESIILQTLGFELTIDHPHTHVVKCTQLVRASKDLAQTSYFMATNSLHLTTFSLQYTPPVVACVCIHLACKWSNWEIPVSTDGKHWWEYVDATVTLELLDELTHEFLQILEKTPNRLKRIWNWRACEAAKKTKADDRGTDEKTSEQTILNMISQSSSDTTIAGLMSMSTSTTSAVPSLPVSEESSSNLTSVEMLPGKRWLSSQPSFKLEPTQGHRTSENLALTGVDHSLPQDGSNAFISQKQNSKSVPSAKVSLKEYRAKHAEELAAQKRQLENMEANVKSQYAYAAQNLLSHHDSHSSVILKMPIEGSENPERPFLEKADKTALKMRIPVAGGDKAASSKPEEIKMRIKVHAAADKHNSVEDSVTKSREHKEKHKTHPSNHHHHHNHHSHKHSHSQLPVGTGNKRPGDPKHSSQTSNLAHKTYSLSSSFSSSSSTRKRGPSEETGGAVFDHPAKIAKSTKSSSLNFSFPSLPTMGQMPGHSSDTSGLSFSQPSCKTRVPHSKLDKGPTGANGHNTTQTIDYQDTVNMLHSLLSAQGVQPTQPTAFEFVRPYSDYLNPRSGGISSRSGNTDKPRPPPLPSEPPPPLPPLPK
- Measurement Notes: CDK9 kinase inhibition assay (Caliper/LabChip EZ Reader)
- Protocol Conditions: CDK9/Cyclin T1 8 nM, ATP 2 mM, 15 min at 27° C.
- Procedure: Compounds of the invention were assayed for inhibition of CDK7, CDK9, CDK12, and CDK2 activity at Biortus Biosciences (Jiangyin, Jiangsu Province, P.R. of China) using kinase assays for each CDK developed with a Caliper/LabChip EZ Reader (Perkin Elmer, Waltham, Mass.). […]
pIC50: −log10 of the molar value.

Compound | pIC50
Brc1cnc(N[C@@H]2CCCNC2)nc1-c1c[nH]c2ccccc12 | 5.30 to 6.70
FC(F)Sc1ccc2c(-c3nc(NC4CCCNC4)ncc3C(F)(F)F)c[nH]c2c1 (centres unmarked) | 5.30 to 6.70
CP(C)(=O)c1cccc2c(-c3nc(NC4CCCNC4)ncc3C(F)(F)F)c[nH]c12 (centres unmarked) | ≤ 5.30
Clc1cnc(NC2CNCCC2c2ccccc2)nc1-c1c[nH]c2ccccc12 (centres unmarked) | ≤ 5.30
Fc1cnc2[nH]cc(-c3nc(NC4CCCNC4)ncc3C(F)(F)F)c2c1 (centres unmarked) | 5.30 to 6.70
N#Cc1cc(-c2ccc3c(-c4nc(NC5CCCNC5)ncc4C(F)(F)F)c[nH]c3c2)c[nH]1 (centres unmarked) | 5.30 to 6.70
O=C(c1ccc2c(-c3nc(NC4CCCNC4)ncc3C(F)(F)F)c[nH]c2c1)N1CCC(O)(C(F)(F)F)C1 (centres unmarked) [Compound 300] | 5.30 to 6.70
Clc1cnc(N[C@H]2CN3CCC2CC3)nc1-c1c[nH]c2ccccc12 | ≤ 5.30
Cc1cccc2c(-c3nc(NC4CCCNC4)ncc3F)c[nH]c12 (centres unmarked) | 5.30 to 6.70
COc1cnc(N[C@H]2CCCNC2)nc1-c1c[nH]c2ccccc12 | ≤ 5.30
N#Cc1ccc2c(-c3nc(N[C@H]4CCCNC4)ncc3SC(F)F)c[nH]c2c1 | 5.30 to 6.70
CCc1cnc(N[C@H]2CCCNC2)nc1-c1c[nH]c2c(C)cccc12 | 5.30 to 6.70
CCc1cnc(NC2CCCNC2)nc1-c1n[nH]c2ncccc12 (centres unmarked) | 5.30 to 6.70
OC1CNCC(Nc2ncc(C(F)(F)F)c(-c3c[nH]c4ccccc34)n2)C1 (centres unmarked) | 5.30 to 6.70

====

- Target Desc: CDK9/Cyclin T1 complex (Homo sapiens, UniProt P50750)
- Measurement Notes: CDK9 kinase inhibition assay (Caliper/LabChip EZ Reader)
- Protocol Conditions: CDK9/Cyclin T1 8 nM, ATP 2 mM, 15 min at 27° C.
pIC50: −log10 of the molar value.
Property Label: pIC50

Molecule | Property Label | Val
FC(F)(F)c1cnc(N[C@H]2CCCNC2)nc1-c1c[nH]c2ccc(Cl)cc12 | pIC50 | 5.30 to 6.70
CCc1cnc(NC2CCCNC2)nc1-c1n[nH]c2ccccc12 (stereo not drawn) | pIC50 | 5.30 to 6.70
FC(F)(F)Sc1cnc(NC2CCCNC2)nc1-c1c[nH]c2ccccc12 (stereo not drawn) | pIC50 | 5.30 to 6.70
CCS(=O)(=O)c1cccc2c(-c3nc(N[C@H]4CCCNC4)ncc3C(F)(F)F)c[nH]c12 | pIC50 | 5.30 to 6.70
COCCn1cc(-c2nc(NC3CCCNC3)ncc2C(F)(F)F)c2ccccc21 (stereo not drawn) | pIC50 | 5.30 to 6.70
Cc1cnc(NC2CCCNC2)nc1-c1c[nH]c2ccccc12 (stereo not drawn) | pIC50 | 5.30 to 6.70
CC1CCNCC1Nc1ncc(C(F)(F)F)c(-c2c[nH]c3ccccc23)n1 (stereo not drawn) [Compound 373] | pIC50 | ≤ 5.30
O=c1[nH]cc(-c2ccc3c(-c4nc(NC5CCCNC5)ncc4C(F)(F)F)c[nH]c3c2)c(=O)[nH]1 (stereo not drawn) | pIC50 | ≤ 5.30
FC(F)(F)c1cnc(NC2CNCc3ccccc32)nc1-c1c[nH]c2ccccc12 (stereo not drawn) | pIC50 | ≤ 5.30
CC1(O)CCN(C(=O)c2ccc3c(-c4nc(N[C@H]5CCCNC5)ncc4C(F)(F)F)c[nH]c3c2)CC1 | pIC50 | ≤ 5.30
CCOP(=O)(OCC)c1ccc2[nH]cc(-c3nc(NC4CCCNC4)ncc3C(F)(F)F)c2c1 (stereo not drawn) | pIC50 | 5.30 to 6.70
C#Cc1cnc(NC2CCCNC2)nc1-c1c[nH]c2ccccc12 (stereo not drawn) | pIC50 | 5.30 to 6.70
